Data provenance: ChEMBL document CHEMBL1208782

system.name: Bile acid receptor (Homo sapiens) (UniProt Q96RI1)
Sequence (Q96RI1 whole entry, the tested form may be a part): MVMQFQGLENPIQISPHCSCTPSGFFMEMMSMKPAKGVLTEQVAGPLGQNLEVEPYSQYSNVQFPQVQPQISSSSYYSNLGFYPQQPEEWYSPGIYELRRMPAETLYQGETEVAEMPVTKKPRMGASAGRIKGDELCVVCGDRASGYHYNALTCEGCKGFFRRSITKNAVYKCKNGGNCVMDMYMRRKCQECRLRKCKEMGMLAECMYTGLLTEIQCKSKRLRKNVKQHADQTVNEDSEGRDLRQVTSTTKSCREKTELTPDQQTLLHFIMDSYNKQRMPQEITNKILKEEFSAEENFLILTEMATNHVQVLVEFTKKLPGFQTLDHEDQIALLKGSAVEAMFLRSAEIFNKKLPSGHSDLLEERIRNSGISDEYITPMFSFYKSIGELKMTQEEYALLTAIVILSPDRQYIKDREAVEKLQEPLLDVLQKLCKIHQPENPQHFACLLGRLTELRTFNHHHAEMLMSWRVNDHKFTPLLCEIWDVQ
assay.notes: Agonist activity at human GST-fused FXR LBD assessed as cofactor peptide interaction with receptor ligand binding domain by FRET assay relative to GW-4064
metric: Efficacy (%)
# value in %; strip the unit string

Some solved cases for reference:
smiles | uom | Efficacy
CC(C)c1onc(-c2c(Cl)cccc2Cl)c1COc1ccc(N(C)Cc2cccc(C(=O)NCCOP(=O)(O)O)c2)c(C(F)(F)F)n1 | % | 114
O=C(O)c1ccccc1OCc1ccc(OCc2c(-c3c(Cl)cccc3Cl)noc2C2CC2)nc1C(F)(F)F | % | 91
CC(C)c1onc(-c2c(Cl)cccc2Cl)c1COc1ccc(/C=C/c2cccc(C(=O)O)c2)c(Cl)c1 | % | 100
CC(C)c1onc(-c2c(Cl)cccc2Cl)c1COc1ccc(NC(=O)c2ccc(C(=O)O)cc2)c(C(F)(F)F)n1 | % | 109
O=C(O)c1cccc(OCc2ccc(OCc3c(-c4c(Cl)cccc4Cl)noc3C3CC3)nc2C(F)(F)F)c1 | % | 98
CC(C)c1onc(-c2c(Cl)cccc2Cl)c1COc1cnc(N(C)Cc2ccc(C(=O)O)cc2)c(Cl)c1 | % | 103
CC(C)c1onc(-c2c(Cl)cccc2Cl)c1COc1ccc(N(C)Cc2cccc(C(=O)NS(C)(=O)=O)c2)c(C(F)(F)F)n1 | % | 110

# evaluate next
The measured Efficacy that CCN(Cc1ccc(C(=O)O)cc1)c1ccc(OCc2c(-c3c(Cl)cccc3Cl)noc2C2CC2)nc1C(F)(F)F showed for Bile acid receptor (Homo sapiens) (UniProt Q96RI1) is 94

====

system.name: Bile acid receptor (Homo sapiens)
assay.notes: Agonist activity at human […] FXR LBD expressed in HEK293 cells coexpressing GAL4-DNA bindig domain and pFRluc by mammalian one-hybrid assay
Format: functional, cell-based
conditions.used: read-out: EC50
metric: EC50 (nM)
Numeric only. Scale: nM

Worked examples, 8 compounds total:
compound | system.name | uom | EC50
O=C(O)c1cccc(OCc2ccc(OCc3c(-c4c(Cl)cccc4Cl)noc3C3CC3)nc2C(F)(F)F)c1 | Bile acid receptor (Homo sapiens) | nM | 151
CC(C)c1onc(-c2c(Cl)cccc2Cl)c1COc1ccc(N(C)Cc2cccc(C(=O)NS(C)(=O)=O)c2)c(C(F)(F)F)n1 | Bile acid receptor (Homo sapiens) | nM | 279
CN(Cc1ccc(C(=O)O)cc1)c1ccc(OCc2c(-c3c(Cl)cccc3Cl)noc2C2CC2)nc1C(F)(F)F | Bile acid receptor (Homo sapiens) | nM | 30
CC(c1ccc(OCc2c(-c3c(Cl)cccc3Cl)noc2C2CC2)nc1C(F)(F)F)N(C)c1ccc(C(=O)O)cc1 (stereo unspecified) | Bile acid receptor (Homo sapiens) | nM | 208
CC(C)c1onc(-c2c(Cl)cccc2Cl)c1COc1ccc(N(C)C(=O)c2cccc(C(=O)O)c2)c(C(F)(F)F)n1 | Bile acid receptor (Homo sapiens) | nM | 571
CC(Oc1ccc(C(=O)O)cc1)c1ccc(OCc2c(-c3c(Cl)cccc3Cl)noc2C2CC2)nc1C(F)(F)F (stereo unspecified) | Bile acid receptor (Homo sapiens) | nM | 189
CC(Nc1ccc(C(=O)O)cc1)c1ccc(OCc2c(-c3c(Cl)cccc3Cl)noc2C2CC2)nc1C(F)(F)F (stereo unspecified) | Bile acid receptor (Homo sapiens) | nM | 333
CC(C)c1onc(-c2c(Cl)cccc2Cl)c1COc1ccc(N(C)Cc2ccc(OCCO)cc2)c(C(F)(F)F)n1 | Bile acid receptor (Homo sapiens) | nM | 1150

Recorded EC50 for Cc1nc(OCc2c(-c3c(Cl)cccc3Cl)noc2C(C)C)ccc1N(C)C(=O)c1ccc(C(=O)O)cc1 on Bile acid receptor (Homo sapiens) was 2030

Field EC50 (Bile acid receptor (Homo sapiens)), entry CC(Oc1cccc(C(=O)O)c1)c1ccc(OCc2c(-c3c(Cl)cccc3Cl)noc2C2CC2)nc1C(F)(F)F (stereo unspecified) : 107

The compound O=C(O)c1ccccc1OCc1ccc(OCc2c(-c3c(Cl)cccc3Cl)noc2C2CC2)nc1C(F)(F)F , tested on Bile acid receptor (Homo sapiens), showed EC50 of 1710

Field EC50 (Bile acid receptor (Homo sapiens)), entry CN(Cc1ccc(C(=O)NCCS(=O)(=O)O)cc1)c1ccc(OCc2c(-c3c(Cl)cccc3Cl)noc2C2CC2)nc1C(F)(F)F : 1420

Test item CC(C)c1onc(-c2c(Cl)cccc2Cl)c1COc1ccc(NC(=O)c2ccc(C(=O)O)cc2)c(C(F)(F)F)n1 ; Bile acid receptor (Homo sapiens); reported EC50 was 474

====

Recorded measurements of pEC50, one per entry
system.name: Estrogen receptor (Homo sapiens, UniProt P03372)
Sequence (P03372 whole entry, the tested form may be a part): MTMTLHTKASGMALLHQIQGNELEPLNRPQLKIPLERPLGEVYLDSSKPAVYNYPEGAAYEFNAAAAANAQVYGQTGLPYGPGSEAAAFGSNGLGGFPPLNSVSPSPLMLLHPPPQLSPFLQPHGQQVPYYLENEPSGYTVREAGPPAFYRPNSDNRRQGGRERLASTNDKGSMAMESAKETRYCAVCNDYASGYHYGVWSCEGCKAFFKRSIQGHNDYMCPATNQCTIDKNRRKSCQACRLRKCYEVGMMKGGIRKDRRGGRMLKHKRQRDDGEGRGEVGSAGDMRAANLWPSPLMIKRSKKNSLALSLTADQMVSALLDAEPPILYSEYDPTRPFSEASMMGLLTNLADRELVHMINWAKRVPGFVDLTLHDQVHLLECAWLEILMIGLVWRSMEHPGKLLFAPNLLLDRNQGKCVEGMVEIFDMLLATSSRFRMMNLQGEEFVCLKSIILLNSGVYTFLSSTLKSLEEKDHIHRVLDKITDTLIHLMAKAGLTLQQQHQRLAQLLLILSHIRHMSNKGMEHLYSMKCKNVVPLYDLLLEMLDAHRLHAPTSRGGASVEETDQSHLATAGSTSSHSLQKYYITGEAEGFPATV
assay.notes: Agonist activity at ERalpha-LBD expressed in HEK293 cells assessed as Gal4-DBD interaction by cellular mammalian one hybrid assay
pEC50: −log10 of the molar value.

smiles | pEC50
CC(C)c1onc(-c2c(Cl)cccc2Cl)c1COc1ccc(N(C)Cc2ccc(C(=O)O)cc2)c(C(F)(F)F)n1 | < 5.00

Summary for this molecule, CN(Cc1ccc(C(=O)O)cc1)c1ccc(OCc2c(-c3c(Cl)cccc3Cl)noc2C2CC2)nc1C(F)(F)F : pEC50 is < 5.00

====

assay.notes: Plasma concentration in db/db mouse at 5 mg/kg, po after 10 mins
Type: ADME, organism-based
Design: dose 5 mg/kg, route oral
conditions.used: read-out: Drug uptake
metric: concentration at 10 min (ng/mL)
Express your answer in ng/mL, writing the number without its unit.

smiles | concentration at 10 min (ng/mL)
CC(C)c1onc(-c2c(Cl)cccc2Cl)c1COc1ccc(N(C)Cc2ccc(C(=O)O)cc2)c(C(F)(F)F)n1 | 92
CN(Cc1ccc(C(=O)O)cc1)c1ccc(OCc2c(-c3c(Cl)cccc3Cl)noc2C2CC2)nc1C(F)(F)F | 283

Please look at the following molecule next.
// field: concentration at 10 min; key: CN(Cc1ccc(C(=O)NCCS(=O)(=O)O)cc1)c1ccc(OCc2c(-c3c(Cl)cccc3Cl)noc2C2CC2)nc1C(F)(F)F ; value = 3

====

We begin with a simple list: items and their reported Emax.
system.name: PXR (nuclear receptor subfamily 1 group I member 2) (Homo sapiens, UniProt O75469)
Sequence (O75469 whole entry, the tested form may be a part): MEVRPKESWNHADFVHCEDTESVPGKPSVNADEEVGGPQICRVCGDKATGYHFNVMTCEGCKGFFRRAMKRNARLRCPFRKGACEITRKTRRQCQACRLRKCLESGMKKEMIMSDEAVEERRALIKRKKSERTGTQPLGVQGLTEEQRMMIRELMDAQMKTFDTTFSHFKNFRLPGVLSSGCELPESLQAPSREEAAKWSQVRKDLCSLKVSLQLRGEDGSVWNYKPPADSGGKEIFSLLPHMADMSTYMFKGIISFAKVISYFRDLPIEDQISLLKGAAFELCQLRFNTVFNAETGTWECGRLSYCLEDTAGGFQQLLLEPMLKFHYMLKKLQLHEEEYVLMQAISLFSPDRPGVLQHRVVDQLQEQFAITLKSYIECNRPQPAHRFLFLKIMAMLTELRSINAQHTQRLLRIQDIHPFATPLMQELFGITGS
assay.notes: Agonist activity at PXR-LBD expressed in HEK293 cells assessed as Gal4-DBD interaction by cellular mammalian one hybrid assay relative to SR-12813
Format: functional, cell-based
conditions.used: HEK293 cells expressing PXR-LBD, read-out: Efficacy
Expressed in %, but write only the number.

Example entries begin here.
smiles | Emax (%)
CN(Cc1ccc(C(=O)O)cc1)c1ccc(OCc2c(-c3c(Cl)cccc3Cl)noc2C2CC2)nc1C(F)(F)F | 67
CN(Cc1cccc(C(=O)O)c1)c1ccc(OCc2c(-c3c(Cl)cccc3Cl)noc2C2CC2)nc1C(F)(F)F | 62

Now consider the entry below.
The compound listed as CC(C)c1onc(-c2c(Cl)cccc2Cl)c1COc1ccc(N(C)Cc2ccc(C(=O)O)cc2)c(C(F)(F)F)n1 has a reported Emax of 60

====

system.name: UniProtKB P11473
Sequence (P11473 whole entry): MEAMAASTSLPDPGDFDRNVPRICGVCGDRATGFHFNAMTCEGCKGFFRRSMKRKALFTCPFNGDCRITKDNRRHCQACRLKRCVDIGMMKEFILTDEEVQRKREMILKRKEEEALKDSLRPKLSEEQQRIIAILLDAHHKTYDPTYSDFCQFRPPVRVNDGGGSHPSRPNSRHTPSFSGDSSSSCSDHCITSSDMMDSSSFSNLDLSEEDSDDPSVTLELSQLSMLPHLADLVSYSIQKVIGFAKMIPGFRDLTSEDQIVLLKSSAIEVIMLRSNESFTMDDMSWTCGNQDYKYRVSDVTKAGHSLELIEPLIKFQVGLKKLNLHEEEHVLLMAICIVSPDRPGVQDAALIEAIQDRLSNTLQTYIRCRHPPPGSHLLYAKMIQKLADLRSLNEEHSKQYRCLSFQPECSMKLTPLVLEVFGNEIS
assay.notes: Agonist activity at VDR-LBD expressed in HEK293 cells assessed as Gal4-DBD interaction by cellular mammalian one hybrid assay
metric: EC50

Examples from the recorded data:
smiles | system.name | EC50
CN(Cc1cccc(C(=O)O)c1)c1ccc(OCc2c(-c3c(Cl)cccc3Cl)noc2C2CC2)nc1C(F)(F)F | UniProtKB P11473 | > 10 µM
CN(Cc1ccc(C(=O)O)cc1)c1ccc(OCc2c(-c3c(Cl)cccc3Cl)noc2C2CC2)nc1C(F)(F)F | UniProtKB P11473 | > 10 µM

Okay, now this compound:
The measured EC50 associated with CC(C)c1onc(-c2c(Cl)cccc2Cl)c1COc1ccc(N(C)Cc2ccc(C(=O)O)cc2)c(C(F)(F)F)n1 reads > 10 µM

====

system.name: UniProt:P04150
Sequence (P04150 whole entry, the tested form may be a part): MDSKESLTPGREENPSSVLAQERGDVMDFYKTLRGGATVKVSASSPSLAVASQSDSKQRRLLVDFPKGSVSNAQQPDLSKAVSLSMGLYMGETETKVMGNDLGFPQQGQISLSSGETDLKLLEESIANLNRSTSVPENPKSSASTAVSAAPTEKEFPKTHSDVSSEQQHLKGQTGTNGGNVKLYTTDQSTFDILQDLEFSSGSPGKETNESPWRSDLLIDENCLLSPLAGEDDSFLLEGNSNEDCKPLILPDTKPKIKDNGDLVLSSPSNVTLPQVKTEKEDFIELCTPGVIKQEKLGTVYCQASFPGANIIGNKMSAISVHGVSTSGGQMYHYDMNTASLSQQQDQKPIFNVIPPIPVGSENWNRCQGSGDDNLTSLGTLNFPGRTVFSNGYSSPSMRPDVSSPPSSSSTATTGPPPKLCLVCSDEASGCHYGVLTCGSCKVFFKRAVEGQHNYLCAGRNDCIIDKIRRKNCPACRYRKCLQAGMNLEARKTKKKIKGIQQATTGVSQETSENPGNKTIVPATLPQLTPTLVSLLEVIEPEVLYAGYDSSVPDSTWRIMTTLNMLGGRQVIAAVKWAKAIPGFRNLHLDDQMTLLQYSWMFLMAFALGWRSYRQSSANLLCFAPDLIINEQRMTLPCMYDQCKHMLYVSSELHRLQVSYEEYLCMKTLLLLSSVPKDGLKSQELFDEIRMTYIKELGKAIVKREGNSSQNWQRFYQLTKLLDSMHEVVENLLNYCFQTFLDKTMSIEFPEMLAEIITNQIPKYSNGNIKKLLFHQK
assay.notes: Agonist activity at GR-LBD expressed in HEK293 cells assessed as Gal4-DBD interaction by cellular mammalian one hybrid assay
metric: EC50

Worked cases, EC50 given:
smiles | metric | value.reported
CN(Cc1cccc(C(=O)O)c1)c1ccc(OCc2c(-c3c(Cl)cccc3Cl)noc2C2CC2)nc1C(F)(F)F | EC50 | > 10 µM
CC(C)c1onc(-c2c(Cl)cccc2Cl)c1COc1ccc(N(C)Cc2ccc(C(=O)O)cc2)c(C(F)(F)F)n1 | EC50 | > 10 µM

Reported UniProt:P04150 EC50 for item CN(Cc1ccc(C(=O)O)cc1)c1ccc(OCc2c(-c3c(Cl)cccc3Cl)noc2C2CC2)nc1C(F)(F)F was > 10 µM
